This collection of values is drawn from patent US20260042763A1.

target: human isoforms of GABAA (α3ß2γ2) receptors (Homo sapiens, UniProt P18507+P34903); construct: expressed in transfected cells; assay: Potentiation of GABA-evoked currents at GABAA (α3β2γ2) receptors, automated patch-clamp (QPatch), Example B1; format: cell-based
Sequence (P34903 29-492): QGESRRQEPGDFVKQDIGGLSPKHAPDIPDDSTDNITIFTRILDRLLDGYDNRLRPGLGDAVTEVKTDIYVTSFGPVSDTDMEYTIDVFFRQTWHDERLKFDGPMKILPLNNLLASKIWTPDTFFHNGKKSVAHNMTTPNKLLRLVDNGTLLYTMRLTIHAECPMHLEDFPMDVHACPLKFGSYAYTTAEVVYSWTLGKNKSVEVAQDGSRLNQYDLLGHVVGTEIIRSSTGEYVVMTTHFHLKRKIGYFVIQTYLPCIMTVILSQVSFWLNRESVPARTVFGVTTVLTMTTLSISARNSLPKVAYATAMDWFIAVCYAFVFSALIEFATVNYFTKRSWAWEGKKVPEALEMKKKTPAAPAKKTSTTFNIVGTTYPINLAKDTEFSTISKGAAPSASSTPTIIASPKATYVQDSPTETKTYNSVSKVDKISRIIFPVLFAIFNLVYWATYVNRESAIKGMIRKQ
Sequence (P47870 25-512 partner limits assumed): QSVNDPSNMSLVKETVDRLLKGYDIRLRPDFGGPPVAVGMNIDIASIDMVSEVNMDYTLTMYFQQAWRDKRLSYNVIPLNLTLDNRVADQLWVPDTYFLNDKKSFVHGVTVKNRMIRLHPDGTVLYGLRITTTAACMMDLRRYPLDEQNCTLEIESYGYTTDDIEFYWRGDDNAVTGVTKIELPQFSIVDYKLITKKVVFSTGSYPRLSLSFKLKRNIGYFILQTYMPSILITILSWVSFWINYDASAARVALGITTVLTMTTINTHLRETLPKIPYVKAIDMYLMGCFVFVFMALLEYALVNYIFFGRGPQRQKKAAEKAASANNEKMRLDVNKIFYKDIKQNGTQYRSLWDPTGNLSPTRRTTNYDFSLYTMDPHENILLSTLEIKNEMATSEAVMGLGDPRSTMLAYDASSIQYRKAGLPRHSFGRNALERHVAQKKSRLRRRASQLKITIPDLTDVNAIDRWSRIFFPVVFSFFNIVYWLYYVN
Sequence (P18507 40-475): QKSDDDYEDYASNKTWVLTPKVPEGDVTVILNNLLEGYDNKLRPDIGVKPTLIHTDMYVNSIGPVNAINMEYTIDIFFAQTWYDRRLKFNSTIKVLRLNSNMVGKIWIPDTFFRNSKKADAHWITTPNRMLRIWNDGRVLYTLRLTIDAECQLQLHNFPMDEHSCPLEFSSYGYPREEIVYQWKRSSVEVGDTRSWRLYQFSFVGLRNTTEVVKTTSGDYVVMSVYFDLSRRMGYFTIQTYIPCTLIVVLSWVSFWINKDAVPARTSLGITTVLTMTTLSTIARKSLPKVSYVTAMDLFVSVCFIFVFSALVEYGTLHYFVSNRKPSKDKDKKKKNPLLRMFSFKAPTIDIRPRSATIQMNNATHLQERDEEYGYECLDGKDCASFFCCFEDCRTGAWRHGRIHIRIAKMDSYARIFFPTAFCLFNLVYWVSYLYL
Below, each entry is listed with its recorded EC50.

Below, 8 molecules whose answers are already recorded.
O=C(O)c1cn2c(n1)CN=C(c1cccc(F)c1F)c1cc(Cl)ccc1-2 :: < 0.05 µM
NC(=O)c1cn2c(n1)CN=C(c1ccccc1F)c1cc(Cl)ccc1-2 :: < 0.05 µM
CP(C)(=O)CCCNC(=O)c1cn2c(n1)CN=C(c1ccccc1F)c1cc(Cl)ccc1-2 :: < 0.05 µM
Cc1ccccc1C1=NCc2nc(C(=O)O)cn2-c2ccc(Cl)cc21 :: < 0.05 µM
O=C(O)c1cn2c(n1)CN=C(c1ccccc1F)c1cc(Br)ccc1-2 :: < 0.05 µM
CN(C)CCNC(=O)c1cn2c(n1)CN=C(c1ccccc1F)c1cc(Cl)ccc1-2 :: < 0.05 µM
O=C(O)c1nc2n(c1CN1CCOCC1)-c1ccc(Cl)cc1C(c1ccccc1F)=NC2 :: > 0.1 µM
O=C(O)c1cn2c(n1)CN=C(c1ccccc1Cl)c1cc(Cl)ccc1-2 :: < 0.05 µM

For the molecule O=C(O)c1nc2n(c1CN1CCCC1)-c1ccc(Cl)cc1C(c1ccccc1F)=NC2 , report EC50. > 0.1 µM

For the molecule CCc1c(C(=O)O)nc2n1-c1ccc(Cl)cc1C(c1ccccc1F)=NC2 , report EC50. < 0.05 µM

For the molecule O=C(O)c1nc2n(c1Cl)-c1ccc(Cl)cc1C(c1ccccc1F)=NC2 , report EC50. < 0.05 µM

For the molecule O=C(O)Cc1cn2c(n1)CN=C(c1ccccc1F)c1cc(Cl)ccc1-2 , report EC50. < 0.05 µM

For the molecule NC(=O)[C@H](O)c1cn2c(n1)CN=C(c1ccccc1F)c1cc(Cl)ccc1-2 , report EC50. < 0.05 µM

For the molecule O=C(O)c1nc2n(c1CNC1CCCCC1)-c1ccc(Cl)cc1C(c1ccccc1F)=NC2 , report EC50. > 0.1 µM
